The following compounds were reported with pIC50 values on UniProt:P25779 in different studies.
Scale: negative log10 of molar concentration, which is what pIC50 denotes.

These solved cases illustrate the format of a correct answer.
CN(C)c1ccc(/C=N/NC(=O)c2ccnc3ccccc23)c2ccccc12 = 5.22
O=C(N/N=C/c1ccc(C(=O)O)o1)c1cccc([N+](=O)[O-])c1 = 3.48
C/C(=N\N=C(\N)S)c1ccc(Cl)c(Cl)c1 = 7.00
O=C(NC(=S)Nc1ncccc1OCc1ccccc1)c1cccn1S(=O)(=O)c1ccccc1 = 5.52
O=C(N/N=C/c1ccnc2ccccc12)c1ccccc1O = 4.52
O=C(COc1ccccc1[N+](=O)[O-])NCCc1nc2ccccc2[nH]1 = 4.88
Cc1c(/C=N/NC(=O)c2ccc([N+](=O)[O-])cc2)no[n+]1[O-] = 4.95
CC(C)C[C@H](NC(=O)[C@H]1O[C@@H]1C(=O)O)C(=O)NCCCCN=C(N)N = 6.40
O=C(COc1ccc2ccccc2c1Br)NCCc1nc2cc(Cl)ccc2[nH]1 = 6.22
CC1SC(N/N=C/CCCSc2ccccc2)=NC1=O (stereo not drawn) = 6.40

[ask] Request body: readout pIC50, system UniProt:P25779, query "[O-][n+]1onc2ccc(/C=N/N=C/c3cc(Br)ccc3O)cc21" . Return the value.
[reply] 4.14

[ask] Request body: readout pIC50, system UniProt:P25779, query "CN(C)c1ccc(/C=N/NC(=O)c2ccc(O)c(O)c2)c2ccccc12" . Return the value.
[reply] 4.79

[ask] Request body: readout pIC50, system UniProt:P25779, query C=CCN1C(=O)C(CC(=O)O)S/C1=N\c1sc2c(c1C(=O)OC(C)C)CCCC2 (stereo not drawn) . Return the value.
[reply] 3.95

[ask] Request body: readout pIC50, system UniProt:P25779, query "CC/C(=N\N=C(\N)S)c1ccc(Cl)c(Cl)c1" . Return the value.
[reply] 7.16

[ask] Request body: readout pIC50, system UniProt:P25779, query CCOC(=O)c1c(/N=C2\SC(CC(=O)O)C(=O)N2c2ccccc2)sc2c1CCCC2 (stereo not drawn) . Return the value.
[reply] 3.92

---

The following compounds were reported with log10(IC50) values on UniProt:P25779 in different studies.
Recorded IC50 (log10, µM)

CS(=O)(=O)c1ccc(-c2ccc([C@H](N[C@H](C(=O)N[C@H](C#N)Cc3ccccc3)C3CC3)C(F)(F)F)cc2)cc1 = -2.15
CS(=O)(=O)c1ccc(-c2ccc([C@H](N[C@@H](Cc3ccccc3)C(=O)N[C@H](C#N)Cc3ccccc3)C(F)(F)F)cc2)cc1 = -2.15
O=C1c2c(O)cc(O)cc2OC(c2ccc(O)cc2)C1c1c(O)cc(O)c2c(=O)cc(-c3ccc(O)c(O)c3)oc12 (racemic) = 0.98
O=C(COc1ccccc1Br)NCCc1nc2ccccc2[nH]1 = -0.10
CC/C(=N\NC(N)=S)c1cccc([N+](=O)[O-])c1 = -0.12

[ask] Request body: readout log10(IC50), system UniProt:P25779, query "Cn1nc(C(F)(F)F)cc1-c1ccc(NC(=O)Nc2cccc(C(F)(F)F)c2)s1" . Return the value.
[reply] 0.49

---

The following compounds were reported with pIC50 values on Cruzipain (Trypanosoma cruzi, UniProt P25779) in different studies.
pIC50: −log10 of the molar value.
Response key: Condition met means pIC50 >= 5; Condition not met means pIC50 < 5.

[ask] Exam item: decide whether the reported pIC50 for "NC(=S)N/N=C/c1ccc2no[n+]([O-])c2c1" is at least 5.
[reply] Condition not met

[ask] Exam item: decide whether the reported pIC50 for "CC(C)(F)C[C@H](N[C@@H](c1ccc(-c2ccc(S(C)(=O)=O)cc2)cc1)C(F)(F)F)C(=O)N[C@H](C#N)C1(c2ccccc2)CC1" is at least 5.
[reply] Condition not met

[ask] Exam item: decide whether the reported pIC50 for "O=S(=O)(/C=C\c1ccc2c(c1)no[n+]2[O-])c1ccccc1" is at least 5.
[reply] Condition not met

[ask] Exam item: decide whether the reported pIC50 for "C=CCn1c(C)c(C(=O)OCC)s/c1=N\c1sc2c(c1C(=O)OCC)CCCC2" is at least 5.
[reply] Condition not met

[ask] Exam item: decide whether the reported pIC50 for "O=C(COc1ccc2ccccc2c1)NCCc1nc2ccccc2[nH]1" is at least 5.
[reply] Condition met

[ask] Exam item: decide whether the reported pIC50 for "O=C(N/N=C/c1cc(Br)cs1)c1cnc2ccccc2c1" is at least 5.
[reply] Condition not met

---

The following compounds were reported with IC50 values on Cruzipain (Trypanosoma cruzi, UniProt P25779) in different studies.
The figure you give is taken to be in µM; do not add the unit.

C/C(=N\NC(N)=S)c1ccc([N+](=O)[O-])cc1 = 7.6

[ask] Would you mind telling me what IC50 value was observed for "CS(=O)(=O)c1sc(C(=O)NC(=S)Nc2ccc(OC(F)(F)F)cc2)c2ccccc12" ?
[reply] 6.9

[ask] Would you mind telling me what IC50 value was observed for "[O-][n+]1onc2ccc(/C=N/NC(=S)Nc3ccccc3)cc21" ?
[reply] 78

[ask] Would you mind telling me what IC50 value was observed for "O=C(Nc1ccc(Cl)cc1)Nc1csc(-c2ccc(C(F)(F)F)cc2)n1" ?
[reply] 1.2

[ask] Would you mind telling me what IC50 value was observed for CCCC(=O)Oc1ccc(C2Oc3cc(OC(=O)CCC)cc(O)c3C(=O)C2c2c(OC(=O)CCC)cc(O)c3c(=O)cc(-c4ccc(OC(=O)CCC)c(OC(=O)CCC)c4)oc23)cc1 (racemic) ?
[reply] 8.1

[ask] Would you mind telling me what IC50 value was observed for "N=C(N)N/N=C/c1ccc(OCc2ccc3no[n+]([O-])c3c2)cc1" ?
[reply] 32

[ask] Would you mind telling me what IC50 value was observed for "Cc1ccc2[nH]c(CCNC(=O)COc3ccc4ccccc4c3Br)nc2c1" ?
[reply] 0.62

[ask] Would you mind telling me what IC50 value was observed for "NC(=S)N/N=C/c1ccc(-c2ccc(Cl)cc2)o1" ?
[reply] 1

[ask] Would you mind telling me what IC50 value was observed for "O=C(COc1cccc2ccccc12)NCCc1nc2ccccc2[nH]1" ?
[reply] 5.2

[ask] Would you mind telling me what IC50 value was observed for "CC(C)=CCC/C(C)=C\Cc1c(O)cc(O)c(C(=O)CCc2ccc(O)cc2)c1O" ?
[reply] 7.1

[ask] Would you mind telling me what IC50 value was observed for "CC(C)C[C@H](N[C@@H](c1ccc(-c2ccc(S(C)(=O)=O)cc2)cc1)C(F)(F)F)C(=O)N[C@H](C#N)Cc1ccccc1" ?
[reply] 0.0002
